Molecular target: BTK T474S (Homo sapiens (Human), UniProt Q06187, T474S)
Sequence (Q06187 whole entry T474S): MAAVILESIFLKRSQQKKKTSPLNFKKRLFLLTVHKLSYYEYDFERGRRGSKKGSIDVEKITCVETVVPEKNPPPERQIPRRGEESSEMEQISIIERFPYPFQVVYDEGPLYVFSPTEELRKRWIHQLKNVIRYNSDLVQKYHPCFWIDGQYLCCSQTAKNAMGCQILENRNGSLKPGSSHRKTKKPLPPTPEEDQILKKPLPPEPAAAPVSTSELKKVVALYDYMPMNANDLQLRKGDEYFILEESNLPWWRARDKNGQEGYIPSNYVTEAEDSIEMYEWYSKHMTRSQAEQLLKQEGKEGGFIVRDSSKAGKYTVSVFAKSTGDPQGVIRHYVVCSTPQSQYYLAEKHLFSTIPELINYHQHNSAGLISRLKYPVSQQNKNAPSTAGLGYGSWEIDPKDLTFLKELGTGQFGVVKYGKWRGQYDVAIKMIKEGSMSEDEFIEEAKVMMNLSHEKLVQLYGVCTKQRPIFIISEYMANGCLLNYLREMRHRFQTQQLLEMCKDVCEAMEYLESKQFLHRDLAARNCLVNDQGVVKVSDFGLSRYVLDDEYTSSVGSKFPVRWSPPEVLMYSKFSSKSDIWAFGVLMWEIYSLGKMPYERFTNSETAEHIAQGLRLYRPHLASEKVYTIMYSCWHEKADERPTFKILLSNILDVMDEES
Assay: Binding kinetics measurements (Surface Plasmon Resonance) on BTK T474S
Settings: SPR binding kinetics, BTK T474S; read-out: Tau (h) BTK T474S (Act); target residence time (converted)
value kind: log10 residence time (log10 of the value in h)

compound | log10 residence time
C[C@H]1CC(=O)N[C@@H]2CCCC(C2)n2nc(-c3ccc(C(=O)Nc4cc(C(F)(F)F)ccn4)cc3)c3c(N)ncc(c32)/C=C/CCN1 | 0.18
Nc1ncc2c3c1c(-c1ccc(C(=O)Nc4cc(C(F)(F)F)ccn4)cc1)nn3[C@@H]1CCC[C@H](C1)NC(=O)COCC/C=C/2 | 0.64
Nc1ncc2n3c(nc(-c4ccc(C(=O)Nc5cc(C(F)(F)F)ccn5)cc4)c13)[C@@H]1CCC[C@H](C1)NC(=O)CCCCC/C=C/2 | 0.98
C[C@@H]1CCn2nc(-c3ccc(C(=O)Nc4cc(C(F)(F)F)ccn4)cc3)c3c(N)ncc(c32)/C=C/CCCCC(=O)N1 | 0.64
Nc1ncc2c3c1c(-c1ccc(C(=O)Nc4cc(C(F)(F)F)ccn4)cc1)nn3[C@@H]1CCC[C@H](C1)NC(=O)COCCC/C=C/2 | 0.71
Nc1ncc2c3c1c(-c1ccc(C(=O)Nc4cc(C(F)(F)F)ccn4)cc1)nn3[C@@H]1CCC[C@H](C1)NC(=O)CCCC/C=C\C2 [Example 98b] | 0.65
C[C@@H]1C[C@@H](C)n2nc(-c3ccc(C(=O)Nc4cc(C(F)(F)F)ccn4)cc3)c3c(N)ncc(c32)/C=C/CCCCCC(=O)N1 | 1.28
C[C@@H]1CC(=O)N[C@@H]2CCC[C@H](C2)n2nc(-c3ccc(C(=O)Nc4cc(C(F)(F)F)ccn4)cc3)c3c(N)ncc(c32)/C=C/CN1C | 0.51
Nc1ncc2c3c1c(-c1ccc(C(=O)Nc4cc(C(F)(F)F)ccn4)cc1F)nn3[C@@H]1CCC[C@H](C1)NC(=O)CCC/C=C/2 | 0.70
COc1ccc(F)cc1C(=O)NCc1ccc(-c2nn3c4c(cnc(N)c24)/C=C/CO[C@H](C)C(=O)N[C@@H]2CCC[C@@H]3C2)cc1 | 0.10
N#Cc1ccnc(NC(=O)c2ccc(-c3nn4c5c(cnc(N)c35)/C=C/CCCCCC(=O)N[C@@H]3CCC[C@@H]4C3)cc2)c1 | 0.83
COc1ccc(F)cc1C(=O)NCc1ccc(-c2nn3c4c(cnc(N)c24)/C=C/CCCCC(=O)N[C@@H]2CCC[C@@H]3C2)cc1 | 0.32
C[C@H]1OC/C=C/c2cnc(N)c3c(-c4ccc(C(=O)Nc5cc(C(F)(F)F)ccn5)cc4)nn(c23)[C@@H]2CCC[C@H](C2)NC1=O | 0.58

====

Target: BTK T474I (Homo sapiens (Human), UniProt Q06187, T474I)
Sequence (Q06187 whole entry T474I): as the sequence (Q06187 whole entry T474S) above, with S474I counted along it
Assay: Binding kinetics measurements (Surface Plasmon Resonance) on BTK T474I
Conditions: target residence time, SPR
value kind: Tau (h) BTK T474I (Act)

molecule | measurement target | value kind | inequality symbol | measured
C[C@@H]1CC(=O)N[C@@H]2CCC[C@H](C2)n2nc(-c3ccc(C(=O)Nc4cc(C(F)(F)F)ccn4)cc3)c3c(N)ncc(c32)/C=C/CN1C [Example 44] | BTK T474I (Homo sapiens (Human), UniProt Q06187, T474I) | Tau (h) BTK T474I (Act) | = | 0.87
Nc1ncc2c3c1c(-c1ccc(C(=O)Nc4cc(C(F)(F)F)ccn4)cc1)nn3[C@@H]1CCC[C@H](C1)NC(=O)CCCCC/C=C/2 [Example 46] | BTK T474I (Homo sapiens (Human), UniProt Q06187, T474I) | Tau (h) BTK T474I (Act) | = | 2.58
Nc1ncc2c3c1c(-c1ccc(C(=O)Nc4cc(C(F)(F)F)ccn4)cc1)nn3[C@@H]1CCC[C@H](C1)C(=O)NCCCC/C=C/2 [Example 1] | BTK T474I (Homo sapiens (Human), UniProt Q06187, T474I) | Tau (h) BTK T474I (Act) | = | 0.92
N#Cc1ccnc(NC(=O)c2ccc(-c3nn4c5c(cnc(N)c35)/C=C/COCCC(=O)N[C@@H]3CC[C@@H]4C3)cc2)c1 [Example 183] | BTK T474I (Homo sapiens (Human), UniProt Q06187, T474I) | Tau (h) BTK T474I (Act) | > | 24

The measured values listed here are drawn from patent US20250074911A1.
